IC50 values for SYK kinase (Homo sapiens), compiled from several publications.

{"Compound": "CC(C)(C)OC(=O)N1CCC(n2cc(Nc3nc(-c4ccco4)nc4cn[nH]c34)cn2)C1 (stereo not shown)", "IC50": "100 to 1000 nM"}
{"Compound": "Cn1cc(-c2cncc3nc(Nc4ccc(C5(C#N)CC5)cc4)nn23)cn1", "IC50": "< 1000 nM"}
{"Compound": "COc1cc(-c2cc3nccc(-c4cc[nH]c4)c3o2)cc(OC)c1OC", "IC50": "< 100 nM"}

Next item in the queue.
Fill in: IC50 of CS(=O)(=O)c1ccc2nc(Nc3cnn(C4CCCOC4)c3)c3n[nH]cc3c2c1 (stereo not shown) is ___
10 to 100 nM
